Where do these numbers come from? They come from ChEMBL document CHEMBL1961873.

Tested on: Leucine-rich repeat serine/threonine-protein kinase 2 (Homo sapiens), Q5S007 [G2019S]
Sequence (Q5S007 whole entry G2019S): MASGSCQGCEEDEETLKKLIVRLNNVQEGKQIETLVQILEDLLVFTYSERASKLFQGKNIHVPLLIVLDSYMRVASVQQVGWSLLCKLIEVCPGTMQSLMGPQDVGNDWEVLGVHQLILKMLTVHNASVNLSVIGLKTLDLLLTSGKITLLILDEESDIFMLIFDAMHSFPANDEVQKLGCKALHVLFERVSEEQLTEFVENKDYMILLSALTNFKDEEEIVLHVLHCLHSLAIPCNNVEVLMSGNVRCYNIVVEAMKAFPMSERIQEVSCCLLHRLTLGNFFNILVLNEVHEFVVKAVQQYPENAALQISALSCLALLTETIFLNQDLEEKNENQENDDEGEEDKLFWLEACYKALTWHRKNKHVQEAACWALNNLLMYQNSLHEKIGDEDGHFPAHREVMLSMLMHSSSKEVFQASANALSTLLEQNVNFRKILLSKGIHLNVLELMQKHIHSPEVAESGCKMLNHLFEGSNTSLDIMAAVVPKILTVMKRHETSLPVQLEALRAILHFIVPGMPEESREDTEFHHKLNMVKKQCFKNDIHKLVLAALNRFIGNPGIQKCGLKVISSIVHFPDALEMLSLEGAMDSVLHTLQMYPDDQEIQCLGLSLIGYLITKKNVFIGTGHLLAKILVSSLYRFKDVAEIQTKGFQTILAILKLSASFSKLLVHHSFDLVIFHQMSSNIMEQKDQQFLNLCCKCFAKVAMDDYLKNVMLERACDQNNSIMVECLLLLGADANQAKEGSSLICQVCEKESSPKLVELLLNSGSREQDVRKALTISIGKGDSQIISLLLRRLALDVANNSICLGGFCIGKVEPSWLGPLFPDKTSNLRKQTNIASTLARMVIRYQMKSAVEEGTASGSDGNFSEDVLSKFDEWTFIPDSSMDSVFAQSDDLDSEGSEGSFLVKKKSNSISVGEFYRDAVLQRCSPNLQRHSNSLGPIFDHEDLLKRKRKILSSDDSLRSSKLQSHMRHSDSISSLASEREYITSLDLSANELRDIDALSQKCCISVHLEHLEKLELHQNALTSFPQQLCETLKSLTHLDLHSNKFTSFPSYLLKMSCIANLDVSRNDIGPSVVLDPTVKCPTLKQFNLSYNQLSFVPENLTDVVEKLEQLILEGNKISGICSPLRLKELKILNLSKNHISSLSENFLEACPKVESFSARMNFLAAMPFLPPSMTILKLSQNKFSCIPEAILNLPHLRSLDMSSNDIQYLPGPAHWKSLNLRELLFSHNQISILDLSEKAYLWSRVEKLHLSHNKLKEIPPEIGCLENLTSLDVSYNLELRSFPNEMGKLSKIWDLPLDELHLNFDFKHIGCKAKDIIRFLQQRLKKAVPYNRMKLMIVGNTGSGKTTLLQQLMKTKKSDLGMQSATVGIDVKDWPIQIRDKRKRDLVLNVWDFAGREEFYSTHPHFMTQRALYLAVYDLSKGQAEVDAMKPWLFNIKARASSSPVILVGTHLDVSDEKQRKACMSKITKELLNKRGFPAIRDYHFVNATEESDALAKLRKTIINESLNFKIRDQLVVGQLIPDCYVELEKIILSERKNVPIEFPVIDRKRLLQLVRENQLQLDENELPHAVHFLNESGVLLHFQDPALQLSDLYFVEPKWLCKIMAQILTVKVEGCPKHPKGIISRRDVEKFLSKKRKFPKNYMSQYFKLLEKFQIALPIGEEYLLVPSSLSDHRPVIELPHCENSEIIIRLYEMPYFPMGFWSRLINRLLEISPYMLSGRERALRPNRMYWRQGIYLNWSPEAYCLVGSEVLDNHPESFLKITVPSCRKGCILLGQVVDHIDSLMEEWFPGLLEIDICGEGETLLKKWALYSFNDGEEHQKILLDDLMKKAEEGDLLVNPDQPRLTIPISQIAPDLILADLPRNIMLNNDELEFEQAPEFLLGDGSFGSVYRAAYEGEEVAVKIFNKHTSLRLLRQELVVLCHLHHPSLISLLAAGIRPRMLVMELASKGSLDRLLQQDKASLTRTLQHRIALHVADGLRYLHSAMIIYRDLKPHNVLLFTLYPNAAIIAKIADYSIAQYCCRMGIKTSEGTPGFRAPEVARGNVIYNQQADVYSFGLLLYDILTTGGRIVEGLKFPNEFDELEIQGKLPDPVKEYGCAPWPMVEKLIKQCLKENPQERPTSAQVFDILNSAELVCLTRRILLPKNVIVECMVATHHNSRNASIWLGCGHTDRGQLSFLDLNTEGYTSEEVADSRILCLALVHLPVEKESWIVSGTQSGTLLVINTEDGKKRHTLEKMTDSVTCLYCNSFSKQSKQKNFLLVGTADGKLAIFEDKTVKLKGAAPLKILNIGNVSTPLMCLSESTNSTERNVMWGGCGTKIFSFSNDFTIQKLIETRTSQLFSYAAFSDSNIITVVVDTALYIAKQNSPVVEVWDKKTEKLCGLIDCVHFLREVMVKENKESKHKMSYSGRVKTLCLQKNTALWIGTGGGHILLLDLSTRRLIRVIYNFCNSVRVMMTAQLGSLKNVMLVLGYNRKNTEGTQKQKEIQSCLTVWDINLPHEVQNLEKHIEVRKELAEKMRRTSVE
Settings: at 1 µM
observable: inhibition

>>> readout_value("COc1ccc(-c2ccc3c(NC(=O)C4CC4)n[nH]c3n2)cc1")
"3.39%"
>>> readout_value("O=C(Nc1n[nH]c2nc(-c3ccc(O)cc3)c(Br)cc12)C1CC1")
"22.4%"
>>> readout_value("NC(=O)Cc1ccccc1Oc1nccc(-c2c(-c3ccc(F)cc3)ncn2C2CCNCC2)n1")
"8.33%"
>>> readout_value("C#Cc1cccc(Nc2ncnc3ccc(OCCCCNCCS(C)(=O)=O)cc23)c1")
"5.54%"
>>> readout_value("COc1cccc(/C=N/Nc2ncnc3c2cnn3-c2cccc(OC)c2)c1")
"5.07%"
>>> readout_value("c1ccc(Oc2ccc(Nc3ncc(-c4ccccc4)o3)cc2)cc1")
"6.81%"
>>> readout_value("O=C1Nc2ccccc2/C1=C/Nc1ccc(-n2cncn2)cc1")
"23.9%"
>>> readout_value("C[C@@H](Oc1cc(-n2cnc3ccc(OC4CCN(C)CC4)cc32)sc1C(N)=O)c1ccccc1Cl")
"13.5%"
>>> readout_value("FC(F)(F)c1cccc(Nc2nccc(-c3cnn4nc(-c5ccccc5)ccc34)n2)c1")
"4.67%"
>>> readout_value("NCc1ccc(-n2c(-c3nonc3N)nc3cnccc32)cc1")
"54.1%"

---

Test system: Mast/stem cell growth factor receptor Kit (Homo sapiens), P10721 [V560G]
Sequence (P10721 whole entry V560G): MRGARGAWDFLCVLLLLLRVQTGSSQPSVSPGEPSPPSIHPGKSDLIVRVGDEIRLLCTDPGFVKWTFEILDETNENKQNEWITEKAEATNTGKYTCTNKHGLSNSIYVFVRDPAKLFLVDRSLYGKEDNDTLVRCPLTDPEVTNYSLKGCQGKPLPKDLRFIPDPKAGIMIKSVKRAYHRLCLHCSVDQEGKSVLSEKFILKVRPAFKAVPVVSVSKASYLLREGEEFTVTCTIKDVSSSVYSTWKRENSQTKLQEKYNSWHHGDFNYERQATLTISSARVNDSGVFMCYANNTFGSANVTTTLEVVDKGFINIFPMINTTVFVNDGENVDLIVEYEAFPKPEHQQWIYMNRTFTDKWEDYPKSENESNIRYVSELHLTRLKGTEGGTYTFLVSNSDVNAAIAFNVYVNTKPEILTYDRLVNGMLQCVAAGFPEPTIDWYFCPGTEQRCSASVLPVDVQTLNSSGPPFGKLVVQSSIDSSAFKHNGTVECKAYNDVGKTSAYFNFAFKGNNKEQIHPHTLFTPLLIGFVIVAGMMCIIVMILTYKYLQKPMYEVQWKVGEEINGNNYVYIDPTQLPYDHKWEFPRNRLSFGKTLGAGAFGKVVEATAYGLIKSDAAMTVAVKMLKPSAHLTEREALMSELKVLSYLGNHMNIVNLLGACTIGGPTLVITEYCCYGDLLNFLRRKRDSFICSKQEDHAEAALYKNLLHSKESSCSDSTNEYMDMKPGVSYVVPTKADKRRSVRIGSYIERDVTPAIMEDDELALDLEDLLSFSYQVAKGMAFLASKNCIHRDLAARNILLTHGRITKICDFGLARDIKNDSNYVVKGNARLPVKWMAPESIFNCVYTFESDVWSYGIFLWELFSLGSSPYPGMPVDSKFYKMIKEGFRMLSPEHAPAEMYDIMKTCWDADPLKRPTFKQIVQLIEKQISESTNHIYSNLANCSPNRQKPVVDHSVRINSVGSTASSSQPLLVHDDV
Conditions: at 1 µM
observable: inhibition (%)

>>> readout_value("C#Cc1cccc(Nc2ncnc3ccc(OCCCCNCCS(C)(=O)=O)cc23)c1")
4.36
>>> readout_value("COc1cc(Nc2ncc(-c3ccccc3)o2)cc(OC)c1OC")
80.4
>>> readout_value("Fc1ccc(-c2ncn(CCCN3CCOCC3)c2-c2ccncc2)cc1")
0.03
>>> readout_value("NS(=O)(=O)c1ccc(Nc2cc(-c3ccc(O)c(F)c3)n[nH]2)cc1")
55.9

---

Target: Sphingosine kinase 1 (Homo sapiens) (UniProt Q9NYA1);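 note: mean percent inhibition of SPHK1 activity, measured within the GSK PKIS screening panel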
Sequence (Q9NYA1 whole entry): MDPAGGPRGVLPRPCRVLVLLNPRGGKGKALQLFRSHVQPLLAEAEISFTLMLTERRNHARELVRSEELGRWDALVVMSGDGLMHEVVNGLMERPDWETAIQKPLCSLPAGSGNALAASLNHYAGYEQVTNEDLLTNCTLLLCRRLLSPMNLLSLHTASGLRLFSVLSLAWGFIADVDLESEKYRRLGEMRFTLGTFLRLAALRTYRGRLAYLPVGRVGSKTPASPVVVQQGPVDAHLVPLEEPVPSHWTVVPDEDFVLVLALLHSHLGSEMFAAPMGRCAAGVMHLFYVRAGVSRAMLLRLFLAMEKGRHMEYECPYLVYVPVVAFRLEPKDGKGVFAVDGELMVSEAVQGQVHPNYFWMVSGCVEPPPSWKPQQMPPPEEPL
Conditions: at 0.1 µM
observable: inhibition (%)

>>> readout_value("Cc1ccc(NC(=O)c2ccoc2)cc1-c1ccc(C(=O)NCC2CC2)cc1")
0
>>> readout_value("O=C1NC(=O)C(c2cccc(Cl)c2)=C1Nc1ccc(Cl)c(C(=O)O)c1")
0.25
>>> readout_value("COc1ccc(C2=C(N3CCc4ccccc43)C(=O)NC2=O)cc1")
0.25
>>> readout_value("CCS(=O)(=O)c1ccc(OC)c(Nc2ncc(-c3ccccc3Cl)o2)c1")
-0.2
>>> readout_value("O=C1Nc2ccccc2/C1=C/Nc1ccc(-n2cncn2)cc1")
1.74
>>> readout_value("Cc1nnc(-c2ccc(C)c(-c3ccc(C(=O)NCc4ccc(Cl)cc4)cc3)c2)o1")
0.23
>>> readout_value("Fc1ccc(-c2ncn(C3CCNCC3)c2-c2ccnc(Oc3ccc(Oc4ccccc4)cc3)n2)cc1")
1.17
>>> readout_value("N#Cc1ccc(Oc2nccc(-c3c(-c4ccc(F)cc4)ncn3C3CCNCC3)n2)cc1")
0.59
>>> readout_value("C[C@@H](Oc1cc(-n2cnc3ccc(OC4CCN(C)CC4)cc32)sc1C(N)=O)c1ccccc1Cl")
-2.98
>>> readout_value("Fc1ccc(-c2ncn(C3CCNCC3)c2-c2ccnc(Oc3ccc(F)c(F)c3)n2)cc1")
1.28

---

Entries and their inhibition
Biological target: Non-receptor tyrosine-protein kinase TNK1 (Homo sapiens);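 note: values are averaged percent inhibition of TNK1, compounds from the GSK published kinase inhibitor set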
Conditions: at 1 µM
observable: inhibition (%)

>>> readout_value("CCS(=O)(=O)c1ccc(OC)c(Nc2ncc(-c3ccccc3Cl)o2)c1")
67.2
>>> readout_value("COC(=O)Nc1nc2ccc(Sc3ccc(NC(=O)Nc4cc(C(F)(F)F)ccc4F)cc3)cc2[nH]1")
25.3
>>> readout_value("CN(C)c1ccc2c(c1)/C(=C/Nc1ccc(S(N)(=O)=O)cc1)C(=O)N2")
5.7
>>> readout_value("CS(=O)(=O)CCNCc1ccc(-c2ccc3ncnc(Nc4ccc(OCc5ccccc5)c(Br)c4)c3c2)o1")
14.6
>>> readout_value("Cc1ccc(NC(=O)c2ccoc2)cc1-c1ccc(C(=O)NCC2CC2)cc1")
5.38
>>> readout_value("Cc1ccc(C(=O)NC(C)C)cc1-c1ccc(C(=O)NCC2CC2)cc1")
-5.58
>>> readout_value("O=C(Nc1n[nH]c2cc(-c3ccccc3)ccc12)C1CC1")
7.79
>>> readout_value("Fc1ccc(-c2ncn(C3CCNCC3)c2-c2ccnc(Oc3ccc(Oc4ccccc4)cc3)n2)cc1")
0.92
>>> readout_value("NS(=O)(=O)c1ccc(N/N=C2\\C(=O)Nc3ccc(-c4cnco4)cc32)cc1")
44.4
>>> readout_value("COc1cccc(-n2cnc3c(N/N=C/c4ccncc4)ncnc32)c1")
19.3
>>> readout_value("CN1CCN(CCCNc2nc3ccc(Oc4ccc(NC(=O)Nc5cc(C(F)(F)F)ccc5F)cc4)cc3[nH]2)CC1")
4.81
>>> readout_value("COc1ccc(-c2ccc3c(NC(=O)C4CC4)n[nH]c3n2)cc1")
12
>>> readout_value("Fc1ccc(-c2ncn(CCCN3CCOCC3)c2-c2ccncc2)cc1")
-6.97
>>> readout_value("CN(C)CCCNc1nccc(-c2c(-c3ccc(F)cc3)nn3cc(C(F)(F)F)ccc23)n1")
0.39
>>> readout_value("Clc1ccc(CNc2nccc(-c3cnn4ncccc34)n2)cc1")
14.8
>>> readout_value("COc1ccc2cc(-c3c(-c4ccncc4)nc(-c4ccc([S+](C)[O-])cc4C)n3C)ccc2c1 (stereo not given)")
12.5
>>> readout_value("NC(=O)Cc1ccccc1Oc1nccc(-c2c(-c3ccc(F)cc3)ncn2C2CCNCC2)n1")
-3.16
>>> readout_value("C#Cc1cccc(Nc2ncnc3ccc(OCCCCNCCS(C)(=O)=O)cc23)c1")
20.9
>>> readout_value("CCc1ccc(Oc2nccc(-c3c(-c4ccc(F)cc4)ncn3C3CCNCC3)n2)cc1")
0.88
>>> readout_value("Fc1ccc(-c2ncn(C3CCNCC3)c2-c2ccnc(Oc3ccc4c(c3)OCO4)n2)cc1")
7.31
